molecular target: T1, human prostate specific membrane antigen (PSMA), full-length, on cells (human, UniProt Q04609 1-750); test: FMAT cell binding, huPSMA CHO cells, after 0 days in human serum at 37 C
T1 construct: also called huPSMA; human PSMA
T1 sequence (Q04609 whole entry): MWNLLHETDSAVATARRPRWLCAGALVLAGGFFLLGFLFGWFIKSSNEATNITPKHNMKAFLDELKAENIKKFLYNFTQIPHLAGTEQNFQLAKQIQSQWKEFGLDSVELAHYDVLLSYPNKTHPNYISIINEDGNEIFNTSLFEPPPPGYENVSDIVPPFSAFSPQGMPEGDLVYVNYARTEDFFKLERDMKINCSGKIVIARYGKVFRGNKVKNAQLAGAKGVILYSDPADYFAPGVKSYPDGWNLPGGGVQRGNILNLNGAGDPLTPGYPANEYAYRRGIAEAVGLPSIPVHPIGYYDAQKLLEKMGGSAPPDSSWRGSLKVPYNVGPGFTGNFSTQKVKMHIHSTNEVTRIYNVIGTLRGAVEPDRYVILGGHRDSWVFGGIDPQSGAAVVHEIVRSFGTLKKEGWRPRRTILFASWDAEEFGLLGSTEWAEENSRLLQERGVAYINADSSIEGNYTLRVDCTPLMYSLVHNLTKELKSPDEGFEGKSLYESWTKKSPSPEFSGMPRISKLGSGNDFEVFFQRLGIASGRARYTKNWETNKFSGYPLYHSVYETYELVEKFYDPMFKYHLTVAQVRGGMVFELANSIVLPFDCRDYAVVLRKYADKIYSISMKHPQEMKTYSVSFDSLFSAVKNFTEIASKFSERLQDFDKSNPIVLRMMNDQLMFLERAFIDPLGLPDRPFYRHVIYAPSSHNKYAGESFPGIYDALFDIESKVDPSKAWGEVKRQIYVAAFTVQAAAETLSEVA
endpoint.label: EC50 (nM)
Supply the numeric figure in nM, leaving out any unit text.

{"binder": "1.11-6GS-2.1 (bispecific antibody, linker (G4S)6; also called 1.11-2.1) EVQLLESGGGLVQPGGSLRLSCAASGFSFSSYALSWVRQAPGKGLEWVSSIGENNDTTDYADNVKGRFTISRDNSKNTLYLQMNSLRVEDTAVYYCVKDGVHWGQGTLVTVSSGGGGSGGGGSGGGGSGGGGSGGGGSGGGGSEVQLVESGGGVVQPGRSLRLSCAASGFSFSGYGMHWVRQAPGKGLEWVAYISYDGSNKYYADSVKGRFTISRDNSKNTLYLQMNSLRAEDTAVYYCAKDPAWGLRLGESSSYDFDIWGQGTMVTVSS", "EC50 (nM)": 0.0892}
{"binder": "1.16-6GS-2.17 (bispecific antibody, linker (G4S)6) EVQLLESGGGLVQPGGSLRLSCAASGFSFSSYALSWVRQAPGKGLEWVSSIGENNHTTDYADTVKGRFTISRDNSKNTLYLQMNSLRVEDTAVYYCVKDGVHWGQGTLVTVSSGGGGSGGGGSGGGGSGGGGSGGGGSGGGGSEVQLVESGGGVVQPGRSLRLSCAASGFSFSGYGMHWVRQAPGKGLEWVAYISYDASNKYYADNVKGRFTISRDNSKNTLYLQMNSLRAEDTAVYYCAKDPAWGLRLGESSSYDFDIWGQGTMVTVSS", "EC50 (nM)": 0.0741}
{"binder": "1.11-6GS-2.17 (bispecific antibody, linker (G4S)6) EVQLLESGGGLVQPGGSLRLSCAASGFSFSSYALSWVRQAPGKGLEWVSSIGENNDTTDYADNVKGRFTISRDNSKNTLYLQMNSLRVEDTAVYYCVKDGVHWGQGTLVTVSSGGGGSGGGGSGGGGSGGGGSGGGGSGGGGSEVQLVESGGGVVQPGRSLRLSCAASGFSFSGYGMHWVRQAPGKGLEWVAYISYDASNKYYADNVKGRFTISRDNSKNTLYLQMNSLRAEDTAVYYCAKDPAWGLRLGESSSYDFDIWGQGTMVTVSS", "EC50 (nM)": 0.0639}

Proceed to the following item.
Please report the recorded EC50 for 1.16-6GS-2.1 (bispecific antibody, linker (G4S)6) EVQLLESGGGLVQPGGSLRLSCAASGFSFSSYALSWVRQAPGKGLEWVSSIGENNHTTDYADTVKGRFTISRDNSKNTLYLQMNSLRVEDTAVYYCVKDGVHWGQGTLVTVSSGGGGSGGGGSGGGGSGGGGSGGGGSGGGGSEVQLVESGGGVVQPGRSLRLSCAASGFSFSGYGMHWVRQAPGKGLEWVAYISYDGSNKYYADSVKGRFTISRDNSKNTLYLQMNSLRAEDTAVYYCAKDPAWGLRLGESSSYDFDIWGQGTMVTVSS .
0.0902
